- TEST_DETAILS: in vivo
- EXPERIMENTAL_SETUP: female, CD1, mouse, iv, 5 mg/kg
QUANTITY: Tmax (min)
Answers are plain numbers, in min.

### Prompt Please report the recorded Tmax for CC[C@@H](C)[C@@H](NC(=O)[C@@H](C)NC(=O)[C@@H](CC(C)C)NC(C)=O)C(=O)N[C@H](C)C(=O)N[C@@H](C(=O)N[C@H](CCCCN)C(N)=O)C(C)C .
### Response 4.8

###

- TEST_DETAILS: in vivo
- EXPERIMENTAL_SETUP: female, CD1, mouse, iv, 5 mg/kg
QUANTITY: Vd
Kindly format the answer as number then unit.

### Prompt Given the entry CC[C@@H](C)[C@@H](NC(=O)[C@@H](C)NC(=O)[C@@H](CC(C)C)NC(C)=O)C(=O)N[C@H](C)C(=O)N[C@@H](C(=O)N[C@H](CCCCN)C(N)=O)C(C)C , report its measured Vd.
### Response 7.58 L/kg

###

- System: MCF-7
- Type: cell-based
- EXPERIMENTAL_SETUP: MTT, 48 hours
QUANTITY: IC50 (µM)
One number for each entry, in µM.

Examples with answers:
{"SUBSTANCE": "Ac-RPPLVIC-NH2 [RP-7 SCR]", "IC50 / µM": 150}
{"SUBSTANCE": "Ac-LAKAVI-NH2 [LA3IK-SCR]", "IC50 / µM": 133}
{"SUBSTANCE": "Ac-SRPPCVIL-NH2 [SR-8]", "IC50 / µM": 141}

As a next step, examine the substance that follows.
### Prompt Consider the substance shown here: Ac-RPPCVIL-NH2 [RP-7] What is its recorded IC50?
### Response 110

###

- TEST_DETAILS: Pharmacokinetic studies in CD1 mice
- EXPERIMENTAL_SETUP: female, CD1, mouse, in vivo, iv, 5 mg/kg
Square brackets hold non-standard residues; d marks the D form. Peptide text beside a SMILES is read from it.
QUANTITY: Vd (L/kg)
One number for each entry, in L/kg.

### Prompt Requested field: Vd. Item: CC[C@@H](C)[C@@H](NC(=O)[C@H](NC(=O)[C@@H](CS)NC(=O)[C@H]1CCCN1C(=O)[C@H]1CCCN1C(=O)[C@@H](CCCNC(=N)N)NC(C)=O)C(C)C)C(=O)N[C@H](CC(C)C)C(N)=O [D-RP-7] (Ac-[dR][dP][dP][dC][dV][dI][dL]-NH2)
### Response 1700

###

- TEST_DETAILS: Mouse liver microsome stability
- EXPERIMENTAL_SETUP: mouse, microsomes, Mouse Liver Microsome T ½ (h), 2 μM peptide, 0.5 mg/ml microsome protein, NADPH-regenerating system
Square brackets hold non-standard residues; d marks the D form. Peptide text beside a SMILES is read from it.
QUANTITY: half-life

### Prompt Dear colleague, I am looking for the recorded half-life of the following compound: CC[C@@H](C)[C@@H](NC(=O)[C@H](NC(=O)[C@@H](CS)NC(=O)[C@H]1CCCN1C(=O)[C@H]1CCCN1C(=O)[C@@H](CCCNC(=N)N)NC(C)=O)C(C)C)C(=O)N[C@H](CC(C)C)C(N)=O [D-RP-7] (Ac-[dR][dP][dP][dC][dV][dI][dL]-NH2)
### Response > 2 h
